Source of measurements: ChEMBL document CHEMBL3885861

# Species: Rattus norvegicus
# run.description: Open TG-GATES - Regimen: Daily Repeat
# Format: toxicity, organism-based, Sprague-Dawley
# Parameters: regimen Daily Repeat, gender Male, age 6 weeks
# condition.label: in vivo, po, 0 mg/kg, […], tissue Plasma, route gavage, dose level Control, time 7 day
Recorded measurements of gamma-GTP, one per entry
property.measured: gamma-GTP (IU/L)

| molecule | unit.tag | value.measured |
| --- | --- | --- |
| CN(CCOc1ccc(CC2SC(=O)NC2=O)cc1)c1ccccn1.O=C(O)/C=C\C(=O)O (stereo unspecified) [ROSIGLITAZONE MALEATE] | IU/L | 0.2 |
| CCO | IU/L | 0.8 |
| CCN(CC)C(=S)SSC(=S)N(CC)CC | IU/L | 2.2 |
| O=C(O)c1ccccc1Nc1ccccc1 | IU/L | 1 |
| CCCCNC(=O)NS(=O)(=O)c1ccc(C)cc1 [TOLBUTAMIDE] | IU/L | 0.8 |
| Nc1ccc(Cc2ccc(N)cc2)cc1 | IU/L | 1 |
